Target Under Test: Adenosine receptor A3 (Homo sapiens) (UniProt P0DMS8)
Sequence (P0DMS8 whole entry): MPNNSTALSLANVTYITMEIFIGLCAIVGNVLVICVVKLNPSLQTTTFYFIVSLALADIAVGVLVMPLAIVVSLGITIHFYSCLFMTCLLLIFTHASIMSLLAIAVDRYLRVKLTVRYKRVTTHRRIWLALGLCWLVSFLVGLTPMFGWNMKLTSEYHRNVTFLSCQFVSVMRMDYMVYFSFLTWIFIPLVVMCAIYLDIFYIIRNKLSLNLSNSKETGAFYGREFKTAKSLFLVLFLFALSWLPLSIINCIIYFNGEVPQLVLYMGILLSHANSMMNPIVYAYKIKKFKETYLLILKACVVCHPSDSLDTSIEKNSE
Test Description: Binding affinity to human adenosine A3 receptor expressed in CHO cells assessed as enhancement of C1IB-MECA-induced displacement of [125I]AB-MECA from receptor at 10 uM after 120 mins relative to control
Property: Activity (%)

Example compounds with recorded Activity:
Smiles	Activity (%)
O=C(Nc1cc(Nc2ccc3cn[nH]c3c2)nc2ccccc12)C1CCCC1	102
O=C(Nc1cc(Nc2ccccc2)nc2ccccc12)C1CCC1	119
O=C(Nc1cc(Nc2ccc(Cl)c(Cl)c2)nc2ccccc12)C1CCCCC1	249
O=C(Nc1cc(Nc2ccc(Cl)c(Cl)c2)nc2ccccc12)c1ccco1	96
O=C(Nc1cc(Nc2ccc(Cl)c(Cl)c2)nc2ccccc12)c1ccccc1	112
O=C(Nc1cc(Nc2ccc3c(c2)CCC3)nc2ccccc12)C1CCCCC1	217
Cc1ccc(Nc2cc(NC(=O)C3CCCC3)c3ccccc3n2)cc1	165
Clc1ccc(Nc2nc3ccccc3c3nc(C4CCCCC4)[nH]c23)cc1Cl	229
O=C(Nc1cc(NC2CCCC2)nc2ccccc12)C1CCCC1	114
O=C(Nc1cc(Nc2ccccc2)nc2ccccc12)c1ccccc1	100

P: O=C(Nc1cc(NCc2ccccc2)nc2ccccc12)C1CCCC1
Q: O=C(Nc1cc(Nc2ccccc2)nc2ccccc12)C1CCCCC1
Ask: Which gives the smaller Activity number: P or Q ? Mark your answer with the label of the selected entry.
Reply: P

A: O=C(Nc1cc(Nc2ccc3c(c2)CCC3)nc2ccccc12)C1CCCC1
B: O=C(Nc1cc(Nc2ccccc2)nc2ccccc12)c1ccco1
Ask: # min-compare on Activity between A and B Let me know the label of the one you choose.
Reply: B
(B: 100%, A: 147%)
